Assay target: Nrf2-Keap1 complex (Homo sapiens)
Sequence (Q14145 whole entry, one chain of several): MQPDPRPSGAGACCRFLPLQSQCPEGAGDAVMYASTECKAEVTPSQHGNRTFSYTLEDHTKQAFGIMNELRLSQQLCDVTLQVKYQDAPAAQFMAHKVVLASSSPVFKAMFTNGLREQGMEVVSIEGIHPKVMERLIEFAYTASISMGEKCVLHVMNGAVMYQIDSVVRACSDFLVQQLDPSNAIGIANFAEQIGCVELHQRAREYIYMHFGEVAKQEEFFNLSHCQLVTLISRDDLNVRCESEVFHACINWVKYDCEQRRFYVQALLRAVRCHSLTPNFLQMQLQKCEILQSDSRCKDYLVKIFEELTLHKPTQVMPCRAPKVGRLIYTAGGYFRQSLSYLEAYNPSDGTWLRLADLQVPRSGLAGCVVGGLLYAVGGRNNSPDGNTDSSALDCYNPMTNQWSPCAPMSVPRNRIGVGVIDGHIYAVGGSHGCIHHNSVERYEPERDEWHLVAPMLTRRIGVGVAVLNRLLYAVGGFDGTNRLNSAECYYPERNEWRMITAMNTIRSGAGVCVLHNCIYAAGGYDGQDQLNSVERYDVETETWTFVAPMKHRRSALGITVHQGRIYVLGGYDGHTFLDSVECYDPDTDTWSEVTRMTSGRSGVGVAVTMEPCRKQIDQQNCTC
Assay notes: cell-based
Assay type: cell-based
Measurement parameters: 3 h, read-out: Activation 100 nL
Assay metric: activation at 16 µM (%)
Write the number in % without appending the unit.

Solved entries:
COc1ccc(C(=O)/C=C/c2ccccc2)cc1: 134
COc1cc(/C=C/C(=O)CC(=O)/C=C/c2ccc(O)c(OC)c2)ccc1O: 252
CC1=C(CC(=O)O)c2cc(F)ccc2/C1=C\c1ccc([S+](C)[O-])cc1 (stereo not drawn) [reference compound]: 114
CCOCN(C(=O)CCl)c1c(C)cccc1CC: 71
O=c1oc2cc(O)ccc2s1 [TIOXOLONE, reference compound]: 156
CC(=O)OC1CC[C@@]2(C)C(CC[C@H]3[C@@H]4CC=C(C(C)=O)[C@@]4(C)C(=O)C[C@@H]32)C1 (stereo partly drawn): 214

From here, focus on the item given below.
Query :: Identify measured activation at 16 µM corresponding to O=C(O)c1cc(O)c2c(c1)[C@@H]([C@H]1c3cc(C(=O)O)cc(O)c3C(=O)c3c(O[C@H]4O[C@H](CO)[C@@H](O)[C@H](O)[C@H]4O)cccc31)c1cccc(O[C@H]3O[C@H](CO)[C@@H](O)[C@H](O)[C@H]3O)c1C2=O [SENNOSIDEA, reference compound]
Result :: 141
